I'd appreciate it if you could supply IC50 values for the items below.
Tested on: Bel-7402
Test: Antitumor activity against human Bel7402 cells assessed as induction of cell death after 48 hrs by MTT assay
Assay type: functional, cell-based
Conditions: Bel-7402, 48 h
Quick reminder: number only, in µM, skip the unit.

Prompt: Request body: readout IC50, system Bel-7402, query CNC(=S)N/N=C(\c1ccccc1)c1ccccn1 . Return the value.
Response: 0.138

Prompt: Request body: readout IC50, system Bel-7402, query NC(=S)N/N=C(\c1ccccc1)c1ccccn1 . Return the value.
Response: 376

Prompt: Request body: readout IC50, system Bel-7402, query C/N=C(\S)N/N=C(\C)c1cnccn1 . Return the value.
Response: 462

Prompt: Request body: readout IC50, system Bel-7402, query C/C(=N\N=C(\N)S)c1cnccn1 . Return the value.
Response: 238

// provenance: ChEMBL document CHEMBL1151880
